Taken from ChEMBL document CHEMBL3994591.

Record type: pIC50 measurement. Applies to: Acetylcholinesterase (Homo sapiens)
# log scale: pIC50 equals minus log10 of the concentration in mol/L

Consider the reported pIC50 for these compounds:
| molecule.smiles | pIC50 |
| --- | --- |
| COc1cc(/C=C/C(=O)Nc2ccccc2)ccc1OCCCCCCCCCCN1CCCC1 | 4.87 |
| COc1cc(/C=C/C(=O)Nc2ccccc2)ccc1OCCCN(C)C | 4.47 |
| CCN(CC)CCCCCCOc1ccc(/C=C/C(=O)O)cc1OC | 5.57 |

INPUT: Query pIC50 on Acetylcholinesterase (Homo sapiens) for `COc1cc(/C=C/C(=O)Nc2ccccc2)ccc1OCCCCN1CCCCC1`
Sequence (P22303 whole entry): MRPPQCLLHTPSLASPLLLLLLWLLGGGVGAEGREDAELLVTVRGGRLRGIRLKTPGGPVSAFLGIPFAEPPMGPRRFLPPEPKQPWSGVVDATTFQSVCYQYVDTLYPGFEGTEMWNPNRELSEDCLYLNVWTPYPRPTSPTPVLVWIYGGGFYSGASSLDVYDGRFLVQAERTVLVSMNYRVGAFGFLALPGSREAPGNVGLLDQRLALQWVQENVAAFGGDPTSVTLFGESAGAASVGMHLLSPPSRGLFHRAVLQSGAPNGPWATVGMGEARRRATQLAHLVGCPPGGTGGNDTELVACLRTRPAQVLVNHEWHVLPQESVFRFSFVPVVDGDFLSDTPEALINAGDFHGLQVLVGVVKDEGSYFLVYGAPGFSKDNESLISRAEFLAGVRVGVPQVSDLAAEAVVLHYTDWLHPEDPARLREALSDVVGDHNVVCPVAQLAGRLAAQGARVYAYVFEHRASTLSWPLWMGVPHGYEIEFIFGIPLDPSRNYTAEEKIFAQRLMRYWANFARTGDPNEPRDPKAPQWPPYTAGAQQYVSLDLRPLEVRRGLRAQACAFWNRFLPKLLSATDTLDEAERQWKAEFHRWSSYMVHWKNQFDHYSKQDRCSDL
OUTPUT: 5.15

INPUT: Give recorded pIC50 with Acetylcholinesterase (Homo sapiens) for the following compound: `CCN(CC)CCCCCCCCCCOc1ccc(/C=C/C(=O)Nc2ccccc2)cc1OC`
OUTPUT: 4.83

INPUT: Record `CCN(CC)CCCCCCCCOc1ccc(/C=C/C(=O)Nc2ccccc2)cc1OC` : what is its pIC50 with Acetylcholinesterase (Homo sapiens)?
OUTPUT: 5.87

INPUT: Query for Acetylcholinesterase (Homo sapiens): what pIC50 does the record show for `CCN(CC)CCOc1ccc(/C=C/C(=O)Nc2ccccc2)cc1OC` ?
OUTPUT: 4.39

INPUT: Could you share what pIC50 was measured for `COc1cc(/C=C/C(=O)Nc2ccccc2)ccc1OCCN(C)C` , tested on Acetylcholinesterase (Homo sapiens)?
OUTPUT: 4.63

====

Test: Octanol-water partition coefficient, log P of the compound at pH 7.4 by shake flask method
Type: physicochemical
Entries annotated with measured logD
Please respond with just the number, no unit label.

| molecule.smiles | reported.property | meas.value |
| --- | --- | --- |
| COc1cc(/C=C/C(=O)Nc2ccccc2)ccc1OCCCCCCCCN1CCCC1 | logD | 1.78 |
| COc1cc(/C=C/C(=O)Nc2ccccc2)ccc1OCCN(C)C | logD | 1.5 |
| COc1cc(/C=C/C(=O)Nc2ccccc2)ccc1OCCCCCCCCN1CCCCC1 | logD | 1.79 |
| COc1cc(/C=C/C(=O)Nc2ccccc2)ccc1OCCCCN(C)C | logD | 1.57 |

INPUT: Form field: reported logD of `CCN(CC)CCCCCCOc1ccc(/C=C/C(=O)O)cc1OC`
OUTPUT: 1.29

INPUT: // query logD value for entry `COc1cc(/C=C/C(=O)Nc2ccccc2)ccc1OCCCCCN1CCCCC1`
OUTPUT: 1.65

====

Listed below: pIC50 values for each entry.
Assay: Inhibition of carboxylesterase (unknown origin) using 4-nitrophenyl acetate as substrate by UV-Vis spectrophotometer
Set-up: species or system Homo sapiens
pIC50: −log10 of the molar value.

Here is how some molecules turned out for pIC50.
| molecule.smiles | pIC50 |
| --- | --- |
| COc1cc(/C=C/C(=O)Nc2ccccc2)ccc1OCCCCCCCCN1CCCC1 | < 3.30 |
| COc1cc(/C=C/C(=O)Nc2ccccc2)ccc1OCCCCCCN1CCCC1 | < 3.30 |
| CCN(CC)CCCCOc1ccc(/C=C/C(=O)Nc2ccccc2)cc1OC | < 3.30 |
| COc1cc(/C=C/C(=O)Nc2ccccc2)ccc1OCCN(C)C | < 3.30 |
| COc1cc(/C=C/C(=O)Nc2ccccc2)ccc1OCCCCCN1CCCC1 | < 3.30 |

INPUT: Given `CCOC(=O)/C=C/c1ccc(OCCCCCCN(CC)CC)c(OC)c1` , state its recorded pIC50.
OUTPUT: < 3.30

INPUT: Param item = `COc1cc(/C=C/C(=O)Nc2ccccc2)ccc1OCCN1CCCCC1` ; retrieve measured pIC50.
OUTPUT: < 3.30

INPUT: Recorded pIC50 of `COc1cc(/C=C/C(=O)Nc2ccccc2)ccc1OCCCCCCCCN(C)C` , please.
OUTPUT: < 3.30

INPUT: Which pIC50 value is on record for `CCN(CC)CCCCCCCCCCOc1ccc(/C=C/C(=O)Nc2ccccc2)cc1OC` ?
OUTPUT: < 3.30

INPUT: Look up pIC50: `COc1cc(/C=C/C(=O)Nc2ccccc2)ccc1OCCCCCCCCCCN1CCCC1`
OUTPUT: < 3.30

INPUT: What value of pIC50 has been reported for the following molecule? `CCN(CC)CCOc1ccc(/C=C/C(=O)Nc2ccccc2)cc1OC`
OUTPUT: < 3.30
